Value source: ChEMBL document CHEMBL1151717

System tested: CYP19 (aromatase) (Homo sapiens, UniProt P11511)
Sequence (P11511 whole entry): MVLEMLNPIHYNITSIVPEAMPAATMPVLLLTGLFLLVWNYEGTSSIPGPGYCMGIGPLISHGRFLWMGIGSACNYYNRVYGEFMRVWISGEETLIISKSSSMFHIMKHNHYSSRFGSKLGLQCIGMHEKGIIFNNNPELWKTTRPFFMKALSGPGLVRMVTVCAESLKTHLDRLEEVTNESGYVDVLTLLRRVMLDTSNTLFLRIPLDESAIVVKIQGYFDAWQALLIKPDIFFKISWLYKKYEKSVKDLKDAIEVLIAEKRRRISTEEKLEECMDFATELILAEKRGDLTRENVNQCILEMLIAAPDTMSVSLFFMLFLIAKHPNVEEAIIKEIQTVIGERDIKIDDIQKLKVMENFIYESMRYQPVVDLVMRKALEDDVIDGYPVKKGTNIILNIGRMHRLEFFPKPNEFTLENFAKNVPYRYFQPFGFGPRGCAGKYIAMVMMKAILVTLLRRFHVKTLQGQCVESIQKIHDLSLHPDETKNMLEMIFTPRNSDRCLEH
Experiment notes: Inhibition of human placental CYP19 at 500 nM
Format: functional
Each item that follows carries a reported inhibition at 0.5 µM.

Take a look at these entries with their results.
>>> experimental_value("N#CC1=Cc2ccc(-c3cccnc3)cc2CC1")
"< 5%"
>>> experimental_value("S=C1CCc2cc(-c3cccnc3)ccc2N1")
"< 5%"
>>> experimental_value("O=C1CCc2cc(-c3cncc4ccccc34)ccc2N1")
"< 5%"

Then there is this compound:
Query: Consider the compound "COc1cncc(-c2ccc3c(c2)CCC(=O)N3)c1" and give its measured inhibition at 0.5 µM.
Response: < 5%
